B1: TOR1AIP2 (parent)
chain: AGQEGEDTLRRRLLAPEAGSHPQQ

Variants of: B1
assay protocol: protein stability index of a GFP-peptide fusion (GPS, HEK-293T) (PSI 1-6); higher = more stable;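 also: lentivirally expressed fusions sorted by FACS into six bins by GFP to DsRed ratio, PSI derived from sequencing read proportions per bin multiplied by bin number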
condition details: c terminus: a fixed tail appended
Please enter yes where protein stability index is greater than or equal to 3, and no where it is lower.

Example results:
[
  {
    "mutation spec": "Q3V",
    "answer label": "no"
  },
  {
    "mutation spec": "G19D",
    "answer label": "no"
  },
  {
    "mutation spec": "S20N",
    "answer label": "no"
  },
  {
    "mutation spec": "Q24S",
    "answer label": "no"
  },
  {
    "mutation spec": "E6A",
    "answer label": "no"
  }
]

Quick check, protein stability index >= 3? `D7P`
yes

Quick check, protein stability index >= 3? `R12H`
yes

Quick check, protein stability index >= 3? `E4T`
no

Quick check, protein stability index >= 3? `L13K`
yes

Quick check, protein stability index >= 3? `E4Q`
no

Quick check, protein stability index >= 3? `D7N`
no

Quick check, protein stability index >= 3? `G5Y`
no

Quick check, protein stability index >= 3? `H21Q`
no

Quick check, protein stability index >= 3? `P22V`
no

Quick check, protein stability index >= 3? `Q24C`
no

Quick check, protein stability index >= 3? `P16I`
yes

Quick check, protein stability index >= 3? `A18T`
yes

Quick check, protein stability index >= 3? `R11L`
no
